Origin of the recorded values: patent US20250313588A1

# Test Name: Plasma metabolic stability assay (human plasma)
# Experimental Context: human, plasma
Measure Name: half-life at 5 μM (min)

1) CC(C)C(=O)OC[C@@H]1O[C@H](n2cnc(N)c3c(C(N)=O)c(Br)nc2-3)[C@@H](O)[C@@H]1OC(=O)C(C)C; 20.5

I. CCC(C)(C)C(=O)OC[C@@H]1O[C@H](n2cnc(N)c3c(C(N)=O)c(Br)nc2-3)[C@@H](O)[C@@H]1O
II. CC(C)(C)C(=O)OC[C@@H]1O[C@H](n2cnc(N)c3c(C(N)=O)c(Br)nc2-3)[C@@H](O)[C@@H]1OC(=O)C(C)(C)C
III. CC1CC(OC(=O)C(O)c2ccccc2)CC(C)(C)N1C (stereo not drawn) [Eucatropin, reference compound]
IV. NC(=O)c1c(Br)nc2n([C@H]3O[C@@H](COC(=O)C45CC6CC(CC(C6)C4)C5)C(O)[C@H]3O)cnc(N)c1-2 (stereo partly drawn)
Kindly order the items shown according to half-life at 5 μM, from the highest value down. Output the labels ranked as instructed.
II, IV, I, III

---

# Test Name: Plasma metabolic stability assay (mouse plasma)
Measure Name: half-life at 5 μM (min)

1) CCC(C)(C)C(=O)OC[C@@H]1O[C@H](n2cnc(N)c3c(C(N)=O)c(Br)nc2-3)[C@@H](O)[C@@H]1O; 6.91

a. CC1CC(OC(=O)C(O)c2ccccc2)CC(C)(C)N1C (stereo not drawn) [Eucatropin, reference compound]
b. NC(=O)c1c(Br)nc2n([C@H]3O[C@@H](COC(=O)C45CC6CC(CC(C6)C4)C5)C(O)[C@H]3O)cnc(N)c1-2 (stereo partly drawn)
Pick one: a or b . Which has the bigger half-life at 5 μM number? Please reply using the label of the selected record.
a

1. CC(C)(C)C(=O)OC[C@@H]1O[C@H](n2cnc(N)c3c(C(N)=O)c(Br)nc2-3)[C@@H](O)[C@@H]1OC(=O)C(C)(C)C
2. CC(C)C(=O)OC[C@@H]1O[C@H](n2cnc(N)c3c(C(N)=O)c(Br)nc2-3)[C@@H](O)[C@@H]1OC(=O)C(C)C
Pick one: 1 or 2 . Which has the bigger half-life at 5 μM number? Please reply using the label of the selected record.
1
(1: 7.25 min, 2: 2.67 min)
